The entries below come with measured IC50 values attached.
# test target: DGKζ (Homo sapiens (Human))
# Sequence (Q13574 other isoform, or with tags, fused parts or gaps): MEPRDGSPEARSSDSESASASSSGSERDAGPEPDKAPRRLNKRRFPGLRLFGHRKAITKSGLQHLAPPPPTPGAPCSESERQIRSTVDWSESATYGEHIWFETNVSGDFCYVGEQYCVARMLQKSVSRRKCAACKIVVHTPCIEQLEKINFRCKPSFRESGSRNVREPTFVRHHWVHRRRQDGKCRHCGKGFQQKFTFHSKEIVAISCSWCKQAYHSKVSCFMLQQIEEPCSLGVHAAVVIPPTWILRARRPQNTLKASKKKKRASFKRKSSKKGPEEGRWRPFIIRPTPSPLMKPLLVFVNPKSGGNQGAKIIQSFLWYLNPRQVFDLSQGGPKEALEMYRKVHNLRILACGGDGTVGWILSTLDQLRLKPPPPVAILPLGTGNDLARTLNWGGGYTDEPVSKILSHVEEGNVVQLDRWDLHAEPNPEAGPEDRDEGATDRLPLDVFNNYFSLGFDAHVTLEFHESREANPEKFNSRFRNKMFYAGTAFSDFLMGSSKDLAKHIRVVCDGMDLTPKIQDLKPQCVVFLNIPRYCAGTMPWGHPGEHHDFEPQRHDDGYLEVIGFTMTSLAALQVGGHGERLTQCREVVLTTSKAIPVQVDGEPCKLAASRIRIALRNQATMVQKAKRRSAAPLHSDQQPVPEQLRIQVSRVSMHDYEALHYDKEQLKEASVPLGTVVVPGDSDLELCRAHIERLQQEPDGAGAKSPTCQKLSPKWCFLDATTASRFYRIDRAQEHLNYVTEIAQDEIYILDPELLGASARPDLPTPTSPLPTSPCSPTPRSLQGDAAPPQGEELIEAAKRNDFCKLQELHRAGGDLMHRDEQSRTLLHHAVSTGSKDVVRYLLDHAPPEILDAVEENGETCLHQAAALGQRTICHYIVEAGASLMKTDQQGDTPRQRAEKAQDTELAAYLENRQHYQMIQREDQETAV
Report the value in nM with no unit label.

Query block: Recall the recorded IC50 for CC[C@H]1CN(C(C)c2ccn3nc(C)c(F)c3n2)[C@H](CC)CN1c1nc(=O)n(C)c2cn(CC#N)nc12 (single isomer, unassigned) [Compound A170b] with DGKζ (Homo sapiens (Human)) and state it.
Result block: 52.5

Query block: Recall the recorded IC50 for CC[C@H]1CN(C(C)c2nc3cccnc3s2)[C@H](CC)CN1c1cc(=O)n(C)c2cn(CC#N)nc12 (some centres unmarked) [Compound A181] with DGKζ (Homo sapiens (Human)) and state it.
Result block: 178

----------
# test target: DGKζ (Homo sapiens (Human))
The entries below come with measured log10 of IC50 values attached.
Please note: log10 values; quantity IC50; unit µM.

Known log10 of IC50 results, listed for orientation:
>  <molecule>
CC[C@H]1CN(C(C)c2ccn3nc(C)c(C)c3n2)[C@H](CC)CN1c1cc(=O)n(C)c2cn(CC#N)nc12 (single isomer, unassigned) [Compound A156a]

>  <endpoint name>
log10 of IC50

>  <observed result>
0.71

$$$$
>  <molecule>
CC[C@H]1CN(C(C)c2ccc3ncsc3n2)[C@H](CC)CN1c1nc(=O)n(C)c2cn(CC#N)nc12 (single isomer, unassigned) [Compound A126a]

>  <endpoint name>
log10 of IC50

>  <observed result>
0.12

$$$$
>  <molecule>
CC[C@H]1CN(C(C)c2ccc(C3CC3)nc2F)[C@H](CC)CN1c1cc(=O)n(C)c2cn(CC#N)nc12 (single isomer, unassigned) [Compound A45a]

>  <endpoint name>
log10 of IC50

>  <observed result>
-1.52

$$$$

Query block: Recall the recorded log10 of IC50 for CCC(c1ccc(C(F)(F)F)cc1)N1C[C@H](CC)N(c2cc(=O)n(C)c3cn(CC#N)nc23)C[C@H]1CC (single isomer, unassigned) [Compound A135b] with DGKζ (Homo sapiens (Human)) and state it.
Result block: 0.57

Query block: Recall the recorded log10 of IC50 for CC[C@@H]1CN(c2cc(=O)n(C)c3cn(CC#N)nc23)[C@@H](C)CN1C(C)c1ccn2nc(C)cc2n1 (single isomer, unassigned) [Compound A172a] with DGKζ (Homo sapiens (Human)) and state it.
Result block: -0.97

----------
The entries below come with measured IC50 values attached.
# test target: UniProt:P23743
# Sequence (P23743 whole entry): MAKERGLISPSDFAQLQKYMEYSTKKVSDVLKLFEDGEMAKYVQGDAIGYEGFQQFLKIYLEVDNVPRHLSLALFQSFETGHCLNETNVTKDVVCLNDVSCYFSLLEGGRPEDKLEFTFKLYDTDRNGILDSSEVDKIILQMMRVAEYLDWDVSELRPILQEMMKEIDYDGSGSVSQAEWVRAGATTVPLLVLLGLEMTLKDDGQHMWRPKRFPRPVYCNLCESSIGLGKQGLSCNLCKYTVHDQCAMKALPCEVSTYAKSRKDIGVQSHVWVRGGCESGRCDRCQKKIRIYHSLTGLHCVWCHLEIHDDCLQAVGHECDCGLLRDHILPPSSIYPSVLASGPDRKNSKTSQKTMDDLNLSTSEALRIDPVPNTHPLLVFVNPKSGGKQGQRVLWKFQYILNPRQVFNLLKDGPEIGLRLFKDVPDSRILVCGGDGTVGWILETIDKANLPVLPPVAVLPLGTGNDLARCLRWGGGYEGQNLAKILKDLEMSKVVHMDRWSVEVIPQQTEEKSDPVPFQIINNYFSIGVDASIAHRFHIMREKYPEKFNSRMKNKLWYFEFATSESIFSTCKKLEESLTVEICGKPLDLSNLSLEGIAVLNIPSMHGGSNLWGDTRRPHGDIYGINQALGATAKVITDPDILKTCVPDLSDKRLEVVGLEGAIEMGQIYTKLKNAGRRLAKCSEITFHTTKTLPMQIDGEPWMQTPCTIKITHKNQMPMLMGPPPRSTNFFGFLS
# experiment: Biochemical DGK IC50 assay (ADP-Glo, lipid micelle substrate), DGKα; note: full length DGKα 7.5 nM
# condition summary: full length DGKα […], ATP 140 μM, DAG 80 μM
Report the value in nM with no unit label.

Known IC50 results, listed for orientation:
>  <compound>
CC[C@H]1CN(C(C)c2cc(F)c(C3CC3)cn2)[C@H](CC)CN1c1cc(=O)n(C)c2cn(CC#N)nc12 (some centres unmarked)

>  <units symbol>
nM

>  <IC50>
167

$$$$
>  <compound>
CC#CCn1cc2c(n1)c(N1C[C@@H](CC)N(C(C)c3ccc4sc(C)nc4c3F)C[C@@H]1CC)cc(=O)n2C (single isomer, unassigned) [Compound A141a]

>  <units symbol>
nM

>  <IC50>
1390

$$$$
>  <compound>
CC[C@H]1CN(C(C)c2ccn3ncc(C)c3n2)[C@H](CC)CN1c1cc(=O)n(C)c2cn(CC#N)nc12 (single isomer, unassigned) [Compound A151b]

>  <units symbol>
nM

>  <IC50>
156

$$$$
>  <compound>
CC[C@H]1CN(C(C)c2ccc3ncoc3c2)[C@H](CC)CN1c1cc(=O)n(C)c2cn(CC#N)nc12 (single isomer, unassigned) [Compound A84b]

>  <units symbol>
nM

>  <IC50>
1170

$$$$

Query block: For the compound shown here, CC[C@H]1CN(C(C)c2ccc3nc(C)cn3n2)[C@H](CC)CN1c1cc(=O)n(C)c2cn(CC#N)nc12 (single isomer, unassigned) [Compound A149b] , give the reported IC50.
Result block: 43

Query block: For the compound shown here, CC#CCn1cc2c(n1)c(N1C[C@@H](CC)N(C(C)c3ccc4nc(C)sc4c3)C[C@@H]1CC)cc(=O)n2C (single isomer, unassigned) [Compound A114b] , give the reported IC50.
Result block: 391

Query block: For the compound shown here, CC[C@@H]1CN(c2cc(=O)n(C)c3cn(CC#N)nc23)[C@@H](C)CN1[C@H](C)c1ccc2ncoc2c1 (single isomer, unassigned) [Compound A85b] , give the reported IC50.
Result block: 2040

Query block: For the compound shown here, CC[C@H]1CN(C(C)c2ccc(OC3COC3)c(F)c2)[C@H](CC)CN1c1cc(=O)n(C)c2cn(CC#N)nc12 (single isomer, unassigned) [Compound A23a] , give the reported IC50.
Result block: 2350

Query block: For the compound shown here, CC[C@H]1CN(C(C)c2ccc3nc(C)sc3n2)[C@H](CC)CN1c1c(C#N)c(=O)n(C)c2cn(CC#N)nc12 (single isomer, unassigned) [Compound A140b] , give the reported IC50.
Result block: 93

Query block: For the compound shown here, [2H]C([2H])([2H])n1c(=O)cc(N2C[C@@H](CC)N(C(C)c3ccc4nc(C)sc4n3)C[C@@H]2CC)c2nn(CC#N)cc21 (single isomer, unassigned) [Compound A134b] , give the reported IC50.
Result block: 108

Query block: For the compound shown here, CC[C@H]1CN(C(C)c2ccc(OC)cc2C)[C@H](CC)CN1c1cc(=O)n(C)c2cn(CC#N)nc12 (some centres unmarked) , give the reported IC50.
Result block: 8410

Query block: For the compound shown here, CC(c1cc2c(cc1F)OCC(C)(C)O2)N1C[C@H](C)N(c2cc(=O)n(C)c3cn(CC#N)nc23)C[C@H]1C (single isomer, unassigned) [Compound A179b] , give the reported IC50.
Result block: 3190

Query block: For the compound shown here, CC#CCn1cc2c(n1)c(N1C[C@@H](CC)N(C(C)c3ccc4nc(C)sc4c3F)C[C@@H]1CC)cc(=O)n2C (single isomer, unassigned) [Compound A138a] , give the reported IC50.
Result block: 311
